tested on: HL-60(TB) leukemia; experiment: NCI-60 one-dose screen, 48 h; conditions: 10 µM unless noted
The panel holds about 83,000 compounds, 20% with a hit somewhere; the sample as a whole holds those more often. Activity calls are given as the source filed them. Rule for the calls: active = growth percent below 10; inactive = the rest.
Classes used: label 1 (active), label 0 (inactive)

{"Molecule": "CCOC(=O)c1c(NC(=O)c2ccc(C(F)(F)F)cc2)sc2c(CN3CCN(C)CC3)c(O)ccc12", "Category": "label 1"}
{"Molecule": "C/C(=C(/C)C1CC1CCNC1CCC(NC(=O)OC(C)(C)C)CC1)c1ccccc1 (stereo not drawn)", "Category": "label 0"}
{"Molecule": "CC(C)N=C(N/C(N)=N/c1nc2ccccc2s1)NC(C)C", "Category": "label 0"}
{"Molecule": "CCCCCCCCCC[C@@H](C)[C@@H]1CC(=O)N[C@H]([C@@H](C)O)C(=O)N[C@@H](C)C(=O)N[C@H](C)C(=O)N[C@@H](CCC(N)=O)C(=O)N[C@H](Cc2ccc(O)cc2)C(=O)N[C@@H](C(C)CC)C(=O)O1 (stereo partly drawn)", "Category": "label 0"}
{"Molecule": "COc1ccc(/C=N/Nc2nc(Nc3ccccc3)nc(Nc3ccc(S(N)(=O)=O)cc3)n2)cc1", "Category": "label 0"}
{"Molecule": "COc1ccc(-c2nnc(SCc3ccc(O)c4ncccc34)o2)cc1", "Category": "label 0"}
{"Molecule": "CCOc1ccccc1NC1=C(Cl)C(=O)c2nc(C)ccc2C1=O", "Category": "label 1"}
{"Molecule": "COC(=O)c1cccc(NC2=CC(=O)C(C)=C(C)C2=O)c1", "Category": "label 0"}
{"Molecule": "CC(C)=CCC[C@](C)(O)[C@H]1CC[C@]2(C)[C@@H]1CC[C@@H]1[C@@]3(C)CCC(NC(=O)c4ccccc4C(=O)O)C(C)(C)[C@@H]3CC[C@]12C (stereo partly drawn)", "Category": "label 0"}
{"Molecule": "O=C1Nc2ccc(Cl)cc2/C1=C/c1ccc(OCC(=O)c2ccc(Br)cc2)cc1", "Category": "label 0"}
{"Molecule": "N#Cc1cccc(NC(=O)c2cc(-c3ccc(F)cc3F)ccc2O)c1", "Category": "label 1"}
{"Molecule": "N#Cc1c(-c2ccc(Cl)cc2)nc(SCc2ccc([N+](=O)[O-])cc2)nc1N1CCNCC1", "Category": "label 1"}
{"Molecule": "NC(=O)C(=Cc1ccc(Cl)cc1)C(N)=O", "Category": "label 0"}
{"Molecule": "Cc1cc(C)c(N2C(=O)CC(Nc3ccc(Cl)cc3Cl)C2=O)c(C)c1 (stereo not drawn)", "Category": "label 0"}
{"Molecule": "O=C1NC(=C(Cl)Cl)/C(=N/S(=O)(=O)N2CCCCC2CC2(C(F)(F)F)N=N2)N1 (stereo not drawn)", "Category": "label 1"}
{"Molecule": "N#Cc1c(Nc2ccccc2)nn2c(-c3ccc([N+](=O)[O-])cc3)ccnc12", "Category": "label 0"}
{"Molecule": "Cc1ccc(-c2cc3nc(C(Cl)Cl)nc(-c4ccccc4)n3n2)cc1", "Category": "label 0"}
{"Molecule": "COc1ccc(S(=O)(=O)NCCCNc2nccc(-c3cn(C(C)(C)C)nc3-c3ccc(Cl)c(OC)c3)n2)cc1", "Category": "label 0"}

###

test system: HT29 colon; assay: NCI-60 one-dose screen, 48 h; settings: 10 µM
The panel holds about 83,000 compounds, 20% with a hit somewhere; the sample as a whole holds those more often. Activity calls are given as the source filed them. Rule for the calls: active = growth percent below 10; inactive = the rest.
Classes used: T (active), F (inactive)

{"Compound": "CC(C)(O)/C=C/C(=O)[C@](C)(O)[C@H]1[C@H](O)C[C@@]2(C)[C@H]3CC=C4[C@@H](C[C@H](O)C(=O)C4(C)C)[C@]3(C)C(=O)C[C@]12C", "Target Or System": "HT29 colon", "Category": "T"}
{"Compound": "CCC(C)[C@H]1C(=O)O[C@H](C(C)C)C(=O)N(C)[C@@H](C(C)C)C(=O)O[C@H](C(C)C)C(=O)N(C)[C@@H](C(C)C)C(=O)O[C@H](C(C)C)C(=O)N1C (some centres not stated)", "Target Or System": "HT29 colon", "Category": "T"}
{"Compound": "CC1=C2C(=C[C@@](C)(C=O)[C@@H]2O)C(=O)[C@](C)(O)C12CC2", "Target Or System": "HT29 colon", "Category": "T"}
{"Compound": "C[C@@H]1C[C@H]2C(=O)O[C@@H](C)C(NC(=O)[C@H](Cc3cc(F)cc(F)c3)NC(=O)Nc3ccc(OS(=O)(=O)F)cc3)C(=O)N3CCC[C@H]3C(=O)N3CCO[C@H](C)[C@H]3C(=O)N[C@@H](CO)C(=O)N2C1 (some centres not stated)", "Target Or System": "HT29 colon", "Category": "F"}
{"Compound": "CC1=C2C(=C[C@@](C)(COC(=O)c3ccc(S(=O)(=O)F)cc3)[C@@H]2O)C(=O)[C@](C)(O)C12CC2", "Target Or System": "HT29 colon", "Category": "T"}
{"Compound": "CC1=C(CCC=NNC(N)=O)C2=C(C)C3(CC3)[C@@](C)(O)C(=O)C2=C1", "Target Or System": "HT29 colon", "Category": "T"}
{"Compound": "COC1[C@@H]2C[C@H]3C(C)(C)O[C@@](C/C=C(/C)C(=O)O)(C2=O)[C@]32Oc3c(CC=C(C)C)c4c(c(O)c3C(=O)[C@H]12)C=CC(C)(C)O4 (some centres not stated)", "Target Or System": "HT29 colon", "Category": "T"}
{"Compound": "N#Cc1nc(-c2ccccc2)oc1N1CCC(S(=O)(=O)F)CC1", "Target Or System": "HT29 colon", "Category": "F"}
{"Compound": "CC1=C[C@H]2O[C@@H]3C[C@@H](O)[C@](C)([C@@]2(C)CC1)[C@@]31CO1", "Target Or System": "HT29 colon", "Category": "F"}
{"Compound": "NC1CCc2cc(O)c(O)cc2C1 (configuration not stated)", "Target Or System": "HT29 colon", "Category": "F"}
{"Compound": "CC(=O)O[C@@H]1[C@@H]2O[C@H]2[C@@](C)(O)C(=O)[C@@H](C)C/C=C/[C@H]2[C@@H]3O[C@]3(C)[C@@H](C)C3[C@H](Cc4ccccc4)NC(=O)[C@@]312 (some centres not stated)", "Target Or System": "HT29 colon", "Category": "F"}
{"Compound": "Cc1ccc(CNc2nc3ccc(OC/C(=C/F)CN)cc3o2)cn1", "Target Or System": "HT29 colon", "Category": "F"}
{"Compound": "CC(C)=CCc1c2c(c(O)c3c1O[C@]14C(=C[C@@H]5C[C@H]1C(C)(C)O[C@@]4(C/C=C(/C)C(=O)O)C5=O)C3=O)C=CC(C)(C)O2", "Target Or System": "HT29 colon", "Category": "T"}
{"Compound": "CN1C(=O)[C@]23SSC1(C)C(=O)N2[C@H]1Nc2ccccc2C1([C@@]12c4ccccc4N[C@@H]1N1C(=O)C4(C)SS[C@]1(C(=O)N4C)[C@H]2O)[C@@H]3O (some centres not stated)", "Target Or System": "HT29 colon", "Category": "T"}
{"Compound": "COc1cc2c(cc1OC)[C@@H]1N(CC2)C(=O)c2ccccc2[C@@]1(C)C(=O)O", "Target Or System": "HT29 colon", "Category": "F"}
{"Compound": "COc1cc(OC)c(S(=O)(=O)N(CCCl)CCCl)cc1C(=O)/C=C/c1ccc(Cl)cc1", "Target Or System": "HT29 colon", "Category": "F"}
{"Compound": "CC(=O)O[C@@H]1C[C@H]2O[C@@H]3C=C(C)CC[C@]3(C)[C@]1(C)[C@]21CO1", "Target Or System": "HT29 colon", "Category": "T"}

###

test system: OVCAR-8 ovarian; experiment: NCI-60 one-dose screen, 48 h (100 = growth as untreated, 0 = no growth, -100 = all killed); conditions: 10 µM
This is part of a sample that, as a whole, favours compounds with a hit. Of some 83,000 tested, about 20% had one in any assay.
Endpoint Name: growth (%)

{"Molecule": "COC(=O)[C@H]1[C@@H](O)[C@@]2(O)c3c(OC)cc(OC)cc3O[C@@]2(c2ccc(OC)cc2)[C@@H]1c1ccccc1", "Value": -11.6}
{"Molecule": "COc1cc(OC)c(S(=O)(=O)N(CCCl)CCCl)cc1C(=O)/C=C/c1ccc(Cl)cc1", "Value": 59.8}
{"Molecule": "CC(=O)O[C@@H]1[C@@H]2O[C@H]2[C@@](C)(O)C(=O)[C@@H](C)C/C=C/[C@H]2[C@@H]3O[C@]3(C)[C@@H](C)C3[C@H](Cc4ccccc4)NC(=O)[C@@]312 (some centres not stated)", "Value": 84.4}
{"Molecule": "CC1=C(CN(O)C(N)=O)C2=C(C)C3(CC3)[C@@](C)(O)C(=O)C2=C1", "Value": 1.75}
{"Molecule": "CC1=C2C(=O)[C@](C)(CO)C=C2C(=O)[C@](C)(O)C12CC2", "Value": 33}
{"Molecule": "CC1=C[C@H]2O[C@@H]3C[C@@H](O)[C@](C)([C@@]2(C)CC1)[C@@]31CO1", "Value": 27.7}
{"Molecule": "CC1=C[C@H]2O[C@@H]3C[C@H]4OC(=O)/C=C\\C=C\\[C@H]([C@@H](C)O)OCC[C@@H](C)[C@H](O)C(=O)OC[C@@]2(CC1)[C@]4(C)[C@]31CO1", "Value": -12.8}
{"Molecule": "CC1=C2C(=C[C@@](C)(C=O)[C@@H]2O)C(=O)[C@](C)(O)C12CC2", "Value": 14.1}
{"Molecule": "N#Cc1nc(-c2ccccc2)oc1N1CCC(S(=O)(=O)F)CC1", "Value": 94.3}
{"Molecule": "CC1=C[C@H]2O[C@@H]3C[C@H]4OC(=O)/C=C\\C=C\\[C@H]([C@@H](C)O)OCC/C(C)=C/C(=O)OC[C@@]2(CC1)[C@]4(C)[C@]31CO1", "Value": -24.4}
{"Molecule": "COc1cc2c(cc1OC)[C@@H]1N(CC2)C(=O)c2ccccc2[C@@]1(C)C(=O)O", "Value": 104}
{"Molecule": "COc1cc2c(O[C@@H]3OC[C@H](O)[C@H](O)[C@H]3O)c3c(c(-c4ccc5c(c4)OCO5)c2cc1OC)C(=O)OC3", "Value": 22}
